Reported values of chromatographic logP for individual entries
- PROTOCOL_DETAILS: logP determination by HPLC on reversed-phase column (C18), EEC Directive 79/831 Annex V.A8
- Type: physicochemical
- TEST_CONTEXT: reversed-phase HPLC column (C18); HPLC, C18, acetonitrile (0.1% formic acid)/water (0.09% formic acid) gradient; read-out: logP

# GIVEN_SMILES, chromatographic logP
rows = [
    ("Cn1nc(C2(F)CC2)c(C(F)(F)F)c1-n1cc(-c2ccc(Cl)c(C(=O)NC3(C#N)CC3)c2)cn1", 3.09),
    ("Cn1nc(C2(F)CC2)c(C(F)F)c1-n1cc(-c2ccc(Cl)c(C(=O)NC3(C#N)CC3)c2)cn1", 2.78),
]

---

- PROTOCOL_DETAILS: logP determination by HPLC on reversed-phase column (C18), EEC Directive 79/831 Annex V.A8
- Assay type: physicochemical
- TEST_CONTEXT: HPLC, C18, acetonitrile (0.1% formic acid)/water (0.09% formic acid) gradient
EXPERIMENTAL_READOUT: logP

# COMPOUND, READOUT_NUMBER
records = [
    ("Cn1nc(C2(Br)CC2)c([N+](=O)[O-])c1-n1cc(-c2ccc(Cl)c(C(=O)NC3CC3)c2)cn1 [Example I-6]", 2.98),
    ("Cn1nc(C2(Cl)CC2)c(C(F)F)c1-n1cc(-c2ccc(Cl)c(C(=O)NC3CC3)c2)cn1 [Example I-8]", 3.05),
    ("Cn1nc(C2(Cl)CC2)c(C(F)F)c1-n1cc(-c2cnc(Cl)c(C(=O)NC3(C#N)CC3)c2)cn1 [Example I-9]", 2.63),
    ("Cn1nc(C2(F)CC2)c(C(F)F)c1-n1cc(-c2ccc(Cl)c(C(=O)NC3CC3)c2)cn1 [Example I-3]", 2.81),
    ("Cn1nc(C2(Cl)CC2)c(C(F)F)c1-n1cc(-c2cnc(Cl)c(C(=O)NC3CC3)c2)cn1 [Example I-10]", 2.60),
    ("Cn1nc(C2(F)CC2)c(C(F)F)c1-n1cc(-c2cnc(Cl)c(C(=O)NC3CC3)c2)cn1 [Example I-12]", 2.42),
    ("Cn1nc(C2(F)CC2)c(C(F)F)c1-n1cc(-c2cnc(Cl)c(C(=O)NC3(C#N)CC3)c2)cn1 [Example I-11]", 2.44),
    ("Cn1nc(C2(F)CC2)c([N+](=O)[O-])c1-n1cc(-c2ccc(Cl)c(C(=O)NC3(C#N)CC3)c2)cn1 [Example I-4]", 2.69),
    ("Cn1nc(C2(Cl)CC2)c(C(F)F)c1-n1cc(-c2ccc(Cl)c(C(=O)NC3(C#N)CC3)c2)cn1 [Example I-7]", 2.96),
    ("Cn1nc(C2(F)CC2)c([N+](=O)[O-])c1-n1cc(-c2ccc(Cl)c(C(=O)NC3CC3)c2)cn1 [Example I-5]", 2.70),
]

---

- PROTOCOL_DETAILS: logP determination by HPLC on reversed-phase column (C18), EEC Directive 79/831 Annex V.A8
- Format: physicochemical
- TEST_CONTEXT: reversed-phase HPLC column (C18); intermediates, values in text; same HPLC method; read-out: log P (HPLC-MS)
Tag: yes if measured chromatographic logP is not below 1, no if it is.

# COMPOUND, QUALITATIVE_LABEL
records = [
    ("Cn1nc(C2(F)CC2)c(C(F)F)c1-n1cc(-c2ccc(Cl)c(C(=O)O)c2)cn1 [Example 29]", "yes"),
    ("CN(C)/C=C/C(=O)C1(F)CC1 [Example 16]", "yes"),
    ("COC(=O)c1cc(-c2cnn(-c3c(C(F)F)c(C4(F)CC4)nn3C)c2)ccc1Cl [Example 28]", "yes"),
    ("CN1N=C(C2(F)CC2)CC1=O [Example 32]", "no"),
    ("N#CC1(NC(=O)c2cc(-c3cn[nH]c3)ccc2Cl)CC1 [Example 14]", "yes"),
    ("Cn1nc(C2(F)CC2)c(C=O)c1Cl [Example 24]", "yes"),
]
